# System: MCF-7 human breast cancer cells
# assay_info: Proliferation (DNA content) of human breast cancer MCF-7 cells (Example 7)
# Type: cell-based
# cond: Homo sapiens, MCF7, MCF-7, Experiment 1; read-out: Inhibition of 1 nM E2 stimulation of DNA by tested compounds IC50
Quick reference: pIC50 of the listed items.
Expect pIC50 as a plain number equal to -log10 of the molar concentration.

molecule	measured_number
CC1=C(c2ccc(O)cc2)[C@H](c2ccc(OCCN3CCCCC3)cc2)Oc2cc(O)ccc21.Cl [EM-652.HCl]	9.10

Lookup: pIC50 / MCF-7 human breast cancer cells / `Cc1c(-c2ccc(O)cc2)n(Cc2ccc(OCCN3CCCCCC3)cc2)c2ccc(O)cc12`
8.43

----------
# Test system: human Ishikawa cells
# assay_info: Alkaline phosphatase activity in human endometrial adenocarcinoma Ishikawa cells (Example 6)
# cond: Homo sapiens, Ishikawa, 120 h, read-out: Inhibition of 1 nM E2-induced stimulation of alkaline phosphatase IC50
As shown below, each of these compounds has a reported pIC50 value.
Bear in mind: pIC50 is minus log10 of a mol/L concentration; give just that figure.

Example compounds with recorded pIC50:
compound	measured_number
CN(C)CCOc1ccc(/C(=C(/CCCl)c2ccccc2)c2ccc(O)cc2)cc1 [OH-Toremifene]	7.14
CC1=C(c2ccc(O)cc2)[C@H](c2ccc(OCCN3CCCCC3)cc2)Oc2cc(O)ccc21.Cl [EM-652.HCl]	8.82
Oc1ccc2c(c1)CC[C@H](c1ccccc1)[C@@H]2c1ccc(OCCN2CCCC2)cc1 [Lasofoxifene (free base)]	8.37
Cl.O=C(c1ccc(OCCN2CCCCC2)cc1)c1c(-c2ccc(O)cc2)sc2cc(O)ccc12 [Raloxifene, hydrochloride]	8.47
Cc1c(-c2ccc(O)cc2)n(Cc2ccc(OCCN3CCCCC3)cc2)c2ccc(O)cc12 [ERA-923]	8.23

Now examine the next entry.
# pIC50 lookup, item COc1ccc(-c2sc3cc(O)ccc3c2Oc2ccc(OCCN3CCCCC3)cc2)cc1.Cl [LY 353381, hydrochloride]
8.73

----------
A collection of compounds and their measured average tumor size above pretreatment values
# Tested on: ZR-75-1 human breast cancer xenografts
# assay_info: Growth and response of human ZR-75-1 breast tumors in OVX nude mice, 7 antiestrogens for 161 days with or without estrone (Example 8)
# Assay type: in vivo
# cond: estrone-stimulated, 50 μg oral daily, 23 weeks
Record the value in %, omitting the unit from your answer.

compound	endpoint_unit	measured_number
CC/C(=C(\c1ccccc1)c1ccc(/C=C/C(=O)O)cc1)c1ccccc1 [GW 5638]	%	227
CC/C(=C(\c1ccc(I)cc1)c1ccc(OCCN2CCCC2)cc1)c1ccccc1 [Idoxifene]	%	86
CC/C(=C(\c1ccccc1)c1ccc(OCCN(C)C)cc1)c1ccccc1 [Tamoxifen]	%	87
CC/C(=C(/c1ccc(OCCN(C)C)cc1)c1cccc(O)c1)c1ccccc1 [Droloxifene]	%	478
CN(C)CCOc1ccc(/C(=C(/CCCl)c2ccccc2)c2ccccc2)cc1 [Toremifene]	%	230

Sample Cl.O=C(c1ccc(OCCN2CCCCC2)cc1)c1c(-c2ccc(O)cc2)sc2cc(O)ccc12 [Raloxifene] — what was its average tumor size above pretreatment values?
191

----------
# System: ZR-75-1 human breast cancer xenografts
# assay_info: Growth and response of human ZR-75-1 breast tumors in OVX nude mice, 7 antiestrogens for 161 days with or without estrone (Example 8)
# Type: in vivo
# cond: estrone-supplemented, 50 μg daily, 161 days
progressing tumors, % of tumors reference
Hi! Could you send only the number? It should be in %, unit omitted.

Field: example entries. Status: answers known.
molecule	endpoint_unit	measured_number
CC/C(=C(/c1ccc(OCCN(C)C)cc1)c1cccc(O)c1)c1ccccc1	%	100
Cl.O=C(c1ccc(OCCN2CCCCC2)cc1)c1c(-c2ccc(O)cc2)sc2cc(O)ccc12	%	81
CC/C(=C(\c1ccccc1)c1ccc(/C=C/C(=O)O)cc1)c1ccccc1	%	77
CC1=C(c2ccc(O)cc2)[C@H](c2ccc(OCCN3CCCCC3)cc2)Oc2cc(O)ccc21.Cl [EM-652.HCl]	%	7
CC/C(=C(\c1ccccc1)c1ccc(OCCN(C)C)cc1)c1ccccc1	%	65
CC/C(=C(\c1ccc(I)cc1)c1ccc(OCCN2CCCC2)cc1)c1ccccc1	%	71

We now examine a further molecule.
Record `CN(C)CCOc1ccc(/C(=C(/CCCl)c2ccccc2)c2ccccc2)cc1` : what is its progressing tumors, % of tumors with ZR-75-1 human breast cancer xenografts?
89
